Test system: HEK293T (UBE3A T485A transfected, BAR Wnt reporter)
Protocol Summary: Renilla luciferase signal (cell health) relative to plate median (fold (linear ratio)); higher = higher Renilla signal
Test Settings: concentration: 100 uM; 24 h
The full ranking holds about 1,100 compounds; the median of “Renilla luciferase signal (cell health) relative to plate median” is about 0.97, and the highest 2% start at about 1.6. The list comes from a sample in which the highest values are over-represented; it also holds close analogues and randomly drawn compounds.
Measurement Kind: Renilla luciferase signal
Answers are plain numbers.

molecule=CCOC(=O)c1ccc([C@H]2CC[C@H](NC[C@H](O)COc3ccc(O)c(NS(C)(=O)=O)c3)CC2)cc1.Cl measurement_kind="Renilla luciferase signal" measured_value=0.0262
molecule="COc1cc(C=O)ccc1O [4-Hydroxy-3-methoxybenzaldehyde]" measurement_kind="Renilla luciferase signal" measured_value=0.902
molecule="CCN(CC)CCOc1ccc(C(=C(Cl)c2ccccc2)c2ccccc2)cc1.O=C(O)CC(O)(CC(=O)O)C(=O)O [Clomiphene citrate (1:1)]" measurement_kind="Renilla luciferase signal" measured_value=1.02
molecule=Cn1cnc([N+](=O)[O-])c1Sc1ncnc2nc[nH]c12 measurement_kind="Renilla luciferase signal" measured_value=0.0481

## Input For the molecule `OC[C@H]1O[C@@H]2O[C@H]3[C@H](O)[C@@H](O)[C@@H](O[C@H]4[C@H](O)[C@@H](O)[C@@H](O[C@H]5[C@H](O)[C@@H](O)[C@@H](O[C@H]6[C@H](O)[C@@H](O)[C@@H](O[C@H]7[C@H](O)[C@@H](O)[C@@H](O[C@H]1[C@H](O)[C@H]2O)O[C@@H]7CO)O[C@@H]6CO)O[C@@H]5CO)O[C@@H]4CO)O[C@@H]3CO` , what Renilla luciferase signal is on record?
## Output 1.77

====

System: HEK293T (UBE3A T485A transfected, BAR Wnt reporter)
Protocol Summary: Renilla luciferase signal (cell health) relative to plate median (fold (linear ratio)); higher = higher Renilla signal
Test Settings: concentration: 10 uM; 24 h
In all, about 1,100 compounds were measured (“Renilla luciferase signal (cell health) relative to plate median”: median about 0.97, highest 2% from about 1.6 on). What follows is part of a selection rich in the highest values, with near analogues and random picks from the rest.
Measurement Kind: Renilla luciferase signal

Some solved cases for reference:
compound=CC[C@H]1OC(=O)[C@H](C)[C@@H](O[C@H]2C[C@@](C)(OC)[C@@H](O)[C@H](C)O2)[C@H](C)[C@@H](O[C@@H]2O[C@H](C)C[C@H](N(C)C)[C@H]2O)[C@](C)(O)C[C@@H](C)C(=O)[C@H](C)[C@@H](O)[C@]1(C)O measured_value=2.38
compound="CCCCCCCCCCCC(=O)OC [Methyl dodecanoate]" measured_value=0.85
compound=Nc1ccc(S(=O)(=O)c2ccc(N)cc2)cc1 measured_value=1.2
compound="CN(C)[C@@H]1C(O)=C(C(N)=O)C(=O)[C@@]2(O)C(O)=C3C(=O)c4c(O)cccc4[C@@](C)(O)[C@H]3[C@H](O)[C@@H]12.O.O [Oxytetracycline dihydrate]" measured_value=0.861
compound=CN(C)[C@@H]1C(O)=C(C(N)=O)C(=O)[C@@]2(O)C(O)=C3C(=O)c4c(O)cccc4[C@@](C)(O)[C@H]3C[C@@H]12 measured_value=0.694
compound=CNCc1ccc(NC(=O)c2c[nH]c3c2C(=O)CCC3)cc1 measured_value=0.437

// switching to the query compound
## Input Please give the measured Renilla luciferase signal for this compound: CC[C@H](C)C(=O)O[C@H]1C[C@H](O)C=C2C=C[C@H](C)[C@H](CC[C@@H](O)C[C@@H](O)CC(=O)[O-])[C@H]21.[Na+] [Pravastatin sodium]
## Output 1.1

====

Record form. Attribute: Renilla luciferase signal. Fill in for each entry.
Test system: HEK293T (UBE3A T485A transfected, BAR Wnt reporter)
Protocol Summary: Renilla luciferase signal (cell health) relative to plate median (fold (linear ratio)); higher = higher Renilla signal
Test Settings: concentration: 100 uM; 24 h
Over roughly 1,100 compounds, “Renilla luciferase signal (cell health) relative to plate median” has its median near 0.97; the highest 2% begin near 1.6. Many of the other results were omitted from the sample, so the highest values are more common in it than they were.
Give bare numbers.

Example entries begin here.
compound=O=C(O)c1cccc(N(Cc2cccnc2)c2ccc(OC(F)F)c(OC(F)F)c2)c1 measured_value=0.322
compound="C=CCOC(Cn1ccnc1)c1ccc(Cl)cc1Cl (stereo unspecified)" measured_value=0.0667
compound=c1ccc2occc2c1 measured_value=1.07

Batch lookup, Renilla luciferase signal per entry.
1. C[C@]12CC[C@@H]3c4ccc(O)cc4C[C@@H](CCCCCCCCCS(=O)CCCC(F)(F)C(F)(F)F)[C@H]3[C@@H]1CC[C@@H]2O (stereo partly specified)
2. CCc1cc(C2=C(C(=O)[O-])N(c3ccccc3C(F)(F)F)S(=O)(=O)c3ccccc32)cc2c1OCO2.[K+] [Fandosentan potassium salt]

## Output
0.48
0.331

====

Tested on: HEK293T (UBE3A T485A transfected, BAR Wnt reporter)
Protocol Summary: Renilla luciferase signal (cell health) relative to plate median (fold (linear ratio)); higher = higher Renilla signal
Test Settings: concentration: 10 uM; 24 h
In all, about 1,100 compounds were measured (“Renilla luciferase signal (cell health) relative to plate median”: median about 0.97, highest 2% from about 1.6 on). The full list was thinned out, with the highest values kept by preference.
Hi there, I'd appreciate the recorded Renilla luciferase signal for every entry that follows.
Numbers only.

compound=O=C(CCCCCCCCc1cccnc1)N1CCC(C=C(c2ccccc2)c2ccccc2)CC1 measured_value=0.939
compound="O=c1c(-c2ccc(O)cc2)coc2cc(O)cc(O)c12 [Genistein]" measured_value=0.58
compound="CC=Cc1ccc(O)c(OC)c1 [Isoeugenol]" measured_value=0.993

Return reported Renilla luciferase signal values for all items listed beneath this line.
1. CCCCCCCCCCCCCCCCCC(=O)O [Octadecanoic acid]
2. CCN(Cc1c(F)cccc1Cl)c1c([N+](=O)[O-])cc(C(F)(F)F)cc1[N+](=O)[O-] [Flumetralin]
3. CC(=O)OC1CC(C)OC(C)O1 (stereo not drawn) [Dimethoxane]
4. C#CCOC(=O)[C@@H](C)Oc1ccc(Oc2ncc(Cl)cc2F)cc1 [Clodinafop-propargyl]
5. O=C1CCC(N2C(=O)c3ccccc3C2=O)C(=O)N1 (stereo not drawn) [Thalidomide]
6. CC1(C)CC(N=C=O)CC(C)(CN=C=O)C1 (stereo not drawn) [Isophorone diisocyanate]
7. Cc1ccc2oc(CN(Cc3ccccc3)C(=O)Nc3c(F)cc(F)cc3F)c(-c3ccc(Cl)cc3)c2c1

## Output
1. 0.923
2. 1
3. 1.26
4. 1.01
5. 0.85
6. 0.865
7. 0.846

// for each compound in input: emit Renilla luciferase signal
1. CCCCOC(=O)[C@@H](C)Oc1ccc(Oc2ccc(C(F)(F)F)cn2)cc1 [Fluazifop-P-butyl]
2. CC1(C)NC(=O)N(c2ccc([N+](=O)[O-])c(C(F)(F)F)c2)C1=O [Nilutamide]
3. CCOC(=O)C(C)Oc1ccc(Oc2cnc3cc(Cl)ccc3n2)cc1 (stereo not drawn) [Quizalofop-ethyl]
4. COCCO [2-Methoxyethanol]
5. N=C(N)c1ccc(OCCCCCOc2ccc(C(=N)N)cc2)cc1.O=S(=O)(O)CCO.O=S(=O)(O)CCO [Pentamidine isethionate]

## Output
[1.22, 0.995, 0.953, 0.983, 0.453]

Lab note: each compound below needs its Renilla luciferase signal filled in.
1. CCCCOC(=O)C(C)Oc1ccc(Oc2ccc(C(F)(F)F)cn2)cc1 (stereo not drawn) [Fluazifop-butyl]
2. CCOC(=O)C(C)Oc1ccc(Oc2nc3ccc(Cl)cc3o2)cc1 (stereo not drawn) [Fenoxaprop-ethyl]
3. C=CCCCCCCCCC(=O)O [10-Undecenoic acid]

## Output
1: 0.984; 2: 1.13; 3: 0.917

====

Tested on: HEK293T (UBE3A T485A transfected, BAR Wnt reporter)
Protocol Summary: Renilla luciferase signal (cell health) relative to plate median (fold (linear ratio)); higher = higher Renilla signal
Test Settings: concentration: 100 uM; 24 h
The full ranking holds about 1,100 compounds; the median of “Renilla luciferase signal (cell health) relative to plate median” is about 0.97, and the highest 2% start at about 1.6. What follows is part of a selection rich in the highest values, with near analogues and random picks from the rest.
Rule: Renilla luciferase signal under 0.9 gives 0, otherwise 1.

Check out these entries, answers already filled in.
compound=CCCCCCCCCCCCCCC assigned_label=1
compound="O=[N+]([O-])c1ccc([O-])cc1.[Na+] [Sodium 4-nitrophenolate]" assigned_label=0
compound=NCc1cccc(C2CCN(C(=O)c3ccc(C#Cc4ccccc4F)o3)CC2)c1 assigned_label=1
compound=CO[C@@H]1COCC[C@@H]1[NH2+][C@@H]1CC[C@@](C(=O)N2CCc3ncc(C(F)(F)F)cc3C2)(C(C)C)C1.O=C([O-])CCC(=O)O assigned_label=1
compound="CN(C)CCCN1c2ccccc2Sc2ccc(Cl)cc21.Cl [Chlorpromazine hydrochloride]" assigned_label=0

## Input Is Renilla luciferase signal at least 0.9? Consider `S=C([S-])NCCNC(=S)[S-].[Mn+2]`
## Output 0

## Input Hi team, for `CCc1c(C(=O)NN2CCCCC2)nn(-c2ccc(Cl)cc2Cl)c1-c1ccc(Br)cc1` , is the recorded Renilla luciferase signal at or above 0.9?
## Output 0

## Input Has `CC(=O)Nc1ccc(O)cc1` a recorded Renilla luciferase signal greater than or equal to 0.9?
## Output 1

## Input Decide: is the reported value of Renilla luciferase signal for `NC(=O)N(O)[C@@H]1C=C[C@H](Oc2cccc(Oc3ccc(F)cc3)c2)C1` equal to or greater than 0.9?
## Output 0
